All values here come from the supplement of paper PMC12855868.

Assign scaled log2 fold change to each entry below.
B1: library; numbered along this chain (parent)
chain: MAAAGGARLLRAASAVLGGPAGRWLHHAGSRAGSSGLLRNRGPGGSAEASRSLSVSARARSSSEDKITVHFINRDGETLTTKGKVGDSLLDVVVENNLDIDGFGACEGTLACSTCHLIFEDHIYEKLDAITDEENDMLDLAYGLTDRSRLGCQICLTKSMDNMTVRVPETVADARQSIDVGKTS

Variants of: B1
Experiment: scaled log2 fold change in cell abundance, elesclomol vs control (0 = silent mean, 1 = nonsense mean) (scaled log2 ratio); higher = higher viability under elesclomol (loss of FDX1 cuproptosis function);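 note: variant abundance is its share of total variant reads in each endpoint sample, from next-generation sequencing of the integrated ORF PCR-amplified out of genomic DNA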
Conditions: with HEK293T FDX1 KO; elesclomol 40 nM; glucose 10 mM; 11 days
Give bare numbers.

R41G 0.252
S34F -0.301
S63M -0.609

// each variant listed below needs its scaled log2 fold change
1. R39S
2. L38M
3. C155H
4. D91C
5. R31T
6. T78M
7. N40Q

Result:
0.0758
1.02
-0.48
0.246
-0.717
-0.0932
0.243
